Answer each item with its documented inhibition at 0.3 µM.
Test system: iNOS
Test: iNOS Western blot in RAW264.7 mouse macrophages
Assay type: cell-based
Conditions: compounds at 300 nM for 2 hours, 24 hour induction by IFNγ, read-out: iNOS suppr. WB

Summary line: `C#CC(=O)N[C@]12CCC(C)(C)C[C@H]1[C@H]1C(=O)C=C3[C@@]4(C)C=C(C#N)C(=O)C(C)(C)[C@@H]4CC[C@@]3(C)[C@]1(C)CC2` , iNOS, reported inhibition at 0.3 µM = > 90%

Summary line: `CC1(C)CC[C@]2(NS(=O)(=O)c3ccccc3)CC[C@]3(C)[C@H](C(=O)C=C4[C@@]5(C)C=C(C#N)C(=O)C(C)(C)[C@@H]5CC[C@]43C)[C@@H]2C1` , iNOS, reported inhibition at 0.3 µM = > 90%

Summary line: `COC(=O)N[C@]12CCC(C)(C)C[C@H]1[C@H]1C(=O)C=C3[C@@]4(C)C=C(C#N)C(=O)C(C)(C)[C@@H]4CC[C@@]3(C)[C@]1(C)CC2` , iNOS, reported inhibition at 0.3 µM = ~90%

Summary line: `CC1(C)CC[C@]2(N)CC[C@]3(C)[C@H](C(=O)C=C4[C@@]5(C)C=C(C#N)C(=O)C(C)(C)[C@@H]5CC[C@]43C)[C@@H]2C1` , iNOS, reported inhibition at 0.3 µM = ~90%

Summary line: `CC1(C)CC[C@]2(NS(=O)(=O)C3CC3)CC[C@]3(C)[C@H](C(=O)C=C4[C@@]5(C)C=C(C#N)C(=O)C(C)(C)[C@@H]5CC[C@]43C)[C@@H]2C1` , iNOS, reported inhibition at 0.3 µM = ~90%
